- Tested on: human lung cancer strain NCI-H441
- Assay type: cell-based
- Method: A test compound was dispensed into a U-bottom 384-well plate as 40 nL serially diluted dimethyl sulfoxide solutions using a liquid handler Echo (LABCYTE). […] This cell suspension was dispensed in an amount of 40 µL per well into a plate containing the test compound, and cultured at 37°C in a 5% carbon dioxide gas incubator. Four days later, 20 µL of CellTiter-Glo (registered trademark) (Promega) was added to each well and […] was measured. […]
reportedProperty: IC50 (nM)
Numbers only, in nM.

{"columns": ["molecule", "unitDescriptor", "IC50"],
 "data": [
  ["CCC[C@H]1C(=O)N[C@H]([C@@H](C)CC)C(=O)N(C)CC(=O)N(C)[C@H]2C/C=C\\CCN(C2=O)[C@@H](Cc2ccc(C)cc2)C(=O)N(C)CC(=O)N[C@@H](CCc2cc(F)c(C(F)F)c(F)c2)C(=O)N2C[C@H](OCC)C[C@H]2C(=O)NC2(CC(C)(C)C2)C(=O)N(C)[C@@H](C(CC)CC)C(=O)N(C)[C@H](C(=O)N(C)C)CC(=O)N1C (stereo in doubt) [PP2783]", "nM", 33.9]
]}

--- query ---
// query IC50 value for entry CCO[C@@H]1C[C@H]2C(=O)NC3(CCC3)C(=O)N(C)[C@@H](C3CCCC3)C(=O)N(C)[C@H](C(=O)N(C)C)CC(=O)N(C)[C@@H](CC3CCCC3)C(=O)N[C@@H]([C@@H](C)CC)C(=O)N(C)CC(=O)N(C)[C@H]3CCCCCN(C3=O)[C@@H](Cc3ccc(C(F)(F)F)cc3)C(=O)N(C)CC(=O)N[C@@H](CCc3cc(F)c(C(F)(F)F)c(F)c3)C(=O)N2C1 [PP0670]
11.3

====

- Test system: human lung cancer strain NCI-H441
- Format: cell-based
So I've got a bunch of compounds here, and I need their IC50 values.
One number for each entry, in nM.

Some solved cases for reference:
{"columns": ["molecularString", "reportedProperty", "unitDescriptor", "assayResult"],
 "data": [
  ["CCCN(C)C(=O)[C@@H]1CC(=O)N(C)[C@@H](CCOC)C(=O)N[C@@H]([C@@H](C)CC)C(=O)N(C)CC(=O)N(C)[C@H]2C/C=C\\CCN(C2=O)[C@@H](Cc2ccc(C(F)(F)F)cc2)C(=O)N(C)CC(=O)N[C@@H](CCc2ccc(C(F)(F)F)c(OC)c2)C(=O)N2C[C@@H](C)C[C@H]2C(=O)NC2(CCC2)C(=O)N(C)[C@@H](C2CCCC2)C(=O)N1C", "IC50", "nM", 18.9],
  ["CCC[C@H]1C(=O)N[C@@H]([C@@H](C)CC)C(=O)N(C)CC(=O)N(C)[C@H]2C/C=C\\CCN(C2=O)[C@@H](Cc2ccc(C(F)(F)F)cc2)C(=O)N(C)CC(=O)N[C@@H](CCc2ccc(C(F)(F)F)c(Cl)c2)C(=O)N2CC3(CC3)C[C@H]2C(=O)NC2(CC(C)(C)C2)C(=O)N(C)[C@@H](CC(F)(F)F)C(=O)N(C)[C@H](C(=O)N(C)C)CC(=O)N1C", "IC50", "nM", 46.5]
]}

--- query ---
// query IC50 value for entry CCO[C@@H]1C[C@H]2C(=O)NC3(CC(C)(C)C3)C(=O)N(C)[C@@H](C3CCCC3)C(=O)N(C)[C@H](C(=O)N(C)CC)CC(=O)N(C)[C@H]3CCCC/C=C/c4ccc(cc4)C[C@@H](C(=O)N(C)CC(=O)N[C@@H](CCc4ccc(Cl)c(Cl)c4)C(=O)N2C1)N1CC/C=C\C[C@@H](C1=O)N(C)C(=O)CN(C)C(=O)[C@H]([C@@H](C)CC)NC3=O
7.9

Values were extracted from patent EP4603105A1.
